We begin with a simple list: items and their reported log10(IC50).
# system: NOX2 (Homo sapiens)
# Construct: HL-60 cells expressed the components of NOX2, including gp91, p22^phox, p47^phox, and p67^phox; endogenous in cells; whole cells in A1, membrane preparations in A3 and A4
# Sequence (P14598 1-390): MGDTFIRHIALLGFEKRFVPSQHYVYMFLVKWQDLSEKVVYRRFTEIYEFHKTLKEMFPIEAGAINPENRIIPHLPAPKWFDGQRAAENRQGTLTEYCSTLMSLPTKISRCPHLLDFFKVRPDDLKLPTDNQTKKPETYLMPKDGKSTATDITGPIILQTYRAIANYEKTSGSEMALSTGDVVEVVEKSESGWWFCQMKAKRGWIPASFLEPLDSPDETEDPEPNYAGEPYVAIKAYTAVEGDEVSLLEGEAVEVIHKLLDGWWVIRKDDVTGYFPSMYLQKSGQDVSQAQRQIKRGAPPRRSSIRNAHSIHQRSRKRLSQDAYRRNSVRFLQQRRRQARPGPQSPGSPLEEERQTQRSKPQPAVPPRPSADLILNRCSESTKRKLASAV
# assay_method_text: NADPH oxidase (NOX2) inhibition, DCF fluorescence in PMA-activated neutrophil-differentiated HL-60 cells
# condition_set: neutrophil-differentiated HL-60 cells, PMA 0.8 µM, DCF fluorescence, 0.05 to 50 µM
A difference of one corresponds to tenfold IC50; all values are log10 with IC50 in µM.

# annotated cases, reported log10(IC50) shown
N#C/C(=C\c1ccncc1)C(=O)c1c[nH]c2ccccc12 ... 0.56
N#C/C(=C\c1cc(-c2ccccc2)on1)C(=O)c1c[nH]c2ccccc12 ... 0.04
CCc1ccc2occ(/C=C(\C#N)C(=O)c3c[nH]c4ccccc34)c(=O)c2c1 ... 1.30

Noted log10(IC50) for N#C/C(=C\c1coc2ccccc2c1=O)C(=O)c1c[nH]c2ccccc12 , tested on NOX2 (Homo sapiens): 0.97

Record N#C/C(=C\c1cc(-c2ccc(F)cc2)on1)C(=O)c1c[nH]c2ccccc12 ; system NOX2 (Homo sapiens); log10(IC50) = 0.79

The molecule N#C/C(=C\c1cccnc1)C(=O)c1c[nH]c2ccccc12 , when measured on NOX2 (Homo sapiens), yielded log10(IC50) of 1.21

Form field, log10(IC50) with NOX2 (Homo sapiens), item N#C/C(=C\c1ccco1)C(=O)c1c[nH]c2ccccc12 : 1.92

Reported log10(IC50) (NOX2 (Homo sapiens)) for entry N#C/C(=C\c1ncc[nH]1)C(=O)c1c[nH]c2ccccc12 is 1.71

Entry CC(C)c1ccc2occ(/C=C(\C#N)C(=O)c3c[nH]c4ccccc34)c(=O)c2c1 , NOX2 (Homo sapiens) data, log10(IC50) value: 1.23
